experiment: Oral bioavailability in cynomolgus monkey at 5.2 mg/kg; type: ADME, organism-based, Macaca fascicularis; settings: in vivo
parameter: bioavailability (%)
Give a bare numeral; the unit % is implied.

Quick one: bioavailability for `COc1ccc2ncc(F)c([C@@H](O)CN3CCC(NCc4cc5c(cn4)OCCO5)CC3)c2n1` ? 12

====

assay: Distribution coefficient, log D of the compound at pH 7.4; format: physicochemical; settings: octanol/water
parameter: logD
Answer with the value's number alone.

Entry under review: `COc1ccc2ncc(F)c(CCN3CC[C@@H](NCc4cc5c(cn4)OCCO5)[C@H](O)C3)c2n1` . Reported logD? 2.16

Can you look up the measured logD of `COc1ccc2ncc(F)c(CCN3CC[C@H](NCc4cc5c(cn4)OCCO5)[C@H](O)C3)c2n1` for me? 1.52

Fill in the blank: the reported logD of `COc1ccc2ncc(F)c(CCN3CCC(NCc4cc5c(cn4)OCCO5)CC3)c2c1` is ____. 2.03

I would be grateful if you could share the reported logD for `COc1ccc2ncc(F)c(CCN3CC[C@@H](NCc4cc5c(cn4)OCCO5)[C@@H](O)C3)c2n1` . 1.38
